B1: ATGL (PNPLA2, patatin-like phospholipase domain-containing protein 2), human, full length / CGI-58 (ABHD5, 1-acylglycerol-3-phosphate O-acyltransferase ABHD5), human (parent)
chain 1: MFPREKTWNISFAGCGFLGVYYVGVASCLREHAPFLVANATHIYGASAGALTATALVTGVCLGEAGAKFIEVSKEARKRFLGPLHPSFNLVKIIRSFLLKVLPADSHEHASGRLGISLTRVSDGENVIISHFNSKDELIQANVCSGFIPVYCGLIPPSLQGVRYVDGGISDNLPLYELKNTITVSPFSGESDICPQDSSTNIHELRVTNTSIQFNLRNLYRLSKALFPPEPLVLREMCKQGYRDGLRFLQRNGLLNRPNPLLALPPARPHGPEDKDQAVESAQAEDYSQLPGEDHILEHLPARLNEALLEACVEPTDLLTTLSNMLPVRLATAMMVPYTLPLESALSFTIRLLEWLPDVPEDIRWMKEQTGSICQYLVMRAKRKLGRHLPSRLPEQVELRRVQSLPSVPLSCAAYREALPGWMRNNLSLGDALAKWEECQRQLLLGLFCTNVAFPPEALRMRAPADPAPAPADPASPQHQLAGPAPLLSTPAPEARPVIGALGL
chain 2: MAAEEEEVDSADTGERSGWLTGWLPTWCPTSISHLKEAEEKMLKCVPCTYKKEPVRISNGNKIWTLKFSHNISNKTPLVLLHGFGGGLGLWALNFGDLCTNRPVYAFDLLGFGRSSRPRFDSDAEEVENQFVESIEEWRCALGLDKMILLGHNLGGFLAAAYSLKYPSRVNHLILVEPWGFPERPDLADQDRPIPVWIRALGAALTPFNPLAGLRIAGPFGLSLVQRLRPDFKRKYSSMFEDDTVTEYIYHCNVQTPSGETAFKNMTIPYGWAKRPMLQRIGKMHPDIPVSVIFGARSCIDGNSGTSIQSLRPHSYVKTIAILGAGHYVYADQPEEFNQKVKEICDTVD

variants of: B1; test: LUMIER: Protein A-ATGL variant and firefly luciferase-partner co-expressed in HEK293T, lysates immunoprecipitated on IgG-coated plates, co-precipitated partner measured as luciferase luminescence; settings: with CGI-58 (ABHD5, 1-acylglycerol-3-phosphate O-acyltransferase ABHD5), transient co-transfection, IgG-coated LUMITRAC plates, 2 h at 4 °C, three PBS washes, Bright-Glo luciferase reagent, triplicates per assay, two …, parent: 0.45, not graded, scale: log2 fold change of co-immunoprecipitated luminescence relative to wild-type ATGL within each experiment
Returns Fulfilled if the recorded screen value is greater than or equal to -0.5, and Not fulfilled otherwise.

Hi, just wondering whether chain 1 T41A shows screen value of -0.5 or higher.
Fulfilled

Please check the record chain 1 K275A and state if its screen value is at or above -0.5.
Fulfilled

Reported screen value reaches at least -0.5 for chain 1 G153A ?
Fulfilled

Could you verify whether the entry chain 1 A453E shows screen value of no less than -0.5?
Fulfilled

Test whether the variant chain 1 L102K records screen value of -0.5 or higher.
Not fulfilled

Answer whether screen value of chain 1 S106K is greater than or equal to -0.5.
Not fulfilled

Could you verify whether the entry chain 1 Q140K shows screen value of no less than -0.5?
Fulfilled

Entry chain 1 A434L : is its screen value no less than -0.5?
Fulfilled

Tell me whether screen value is at least -0.5 here: chain 1 F348E
Not fulfilled

hey, is screen value for this one >= -0.5? chain 1 N39E
Fulfilled

I'd appreciate it if you could say whether chain 1 G189E has screen value at least equal to -0.5.
Not fulfilled

Can chain 1 S158A be said to have screen value at or above -0.5?
Fulfilled

Reported screen value reaches at least -0.5 for chain 1 E368A ?
Not fulfilled

Evaluate chain 1 G66A : screen value at minimum -0.5?
Fulfilled

Is screen value at least -0.5? Consider chain 1 G66L
Not fulfilled

Hello, I need to know if chain 1 L178A has measured screen value not below -0.5. Thanks!
Fulfilled

Reported screen value at or above -0.5? chain 1 L62K
Fulfilled

Item chain 1 R163K with screen value of -0.5 or above?
Fulfilled

Does the variant chain 1 V127L have recorded screen value that is -0.5 or more?
Fulfilled

Test whether the variant chain 1 E125L records screen value of -0.5 or higher.
Fulfilled

Please indicate if the recorded screen value for chain 1 P86K meets or exceeds -0.5.
Not fulfilled

State whether the measured screen value reaches -0.5, counting equality as reaching it, for chain 1 I70A
Not fulfilled

Determine whether this variant has screen value no lower than -0.5: chain 1 V328A
Fulfilled

Is it the case that chain 1 Y415A has screen value reaching or exceeding -0.5?
Fulfilled

Can chain 1 K92L be said to have screen value at or above -0.5?
Fulfilled

For this variant, is measured screen value -0.5 or higher? chain 1 N180L
Not fulfilled

screen value >= -0.5 for chain 1 L261E ?
Not fulfilled

Does the variant chain 1 P103K have recorded screen value that is -0.5 or more?
Fulfilled

screen value >= -0.5 for chain 1 L159A ?
Not fulfilled

Reported screen value reaches at least -0.5 for chain 1 G59L ?
Not fulfilled

Each recorded value in this set is attributed to paper PMC10958042.
